Hello, the source for this data is the supplement of paper PMC8728848, in case you need it.

Target: GlcNAc(b1-3)GalNAc
Assay: glycan array binding signal (z-score within array); higher = stronger binding
Conditions: glycan notation: IUPAC condensed, linker removed
The full list was thinned out, with the strongest signals kept by preference.
# glycan array binding signal (z-score) listing for each entry below
Answer with a number only.

DBA (Dolichos biflorus) (protein) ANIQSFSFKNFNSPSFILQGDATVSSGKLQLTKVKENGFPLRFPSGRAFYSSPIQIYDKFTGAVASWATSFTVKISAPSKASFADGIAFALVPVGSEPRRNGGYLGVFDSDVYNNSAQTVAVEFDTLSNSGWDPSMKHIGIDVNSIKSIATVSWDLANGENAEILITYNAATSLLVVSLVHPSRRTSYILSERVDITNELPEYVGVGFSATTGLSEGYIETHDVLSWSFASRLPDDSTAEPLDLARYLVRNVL : -0.101
FBG2 (Homo sapiens), Q9NRD1 (protein) MDAPHSKAALDSINELPENILLELFTHVPARQLLLNCRLVCSLWRDLIDLMTLWKRKCLREGFITKDWDQPVADWKIFYFLRSLHRNLLRNPCAEEDMFAWQIDFNGGDRWKVESLPGAHGTDFPDPKVKKYFVTSYEMCLKSQLVDLVAEGYWEELLDTFRPDIVVKDWFAARADCGCTYQLKVQLASADYFVLASFEPPPVTIQQWNNATWTEVSYTFSDYPRGVRYILFQHGGRDTQYWAGWYGPRVTNSSIVVSPKMTRNQASSEAQPGQKHGQEEAAQSPYRAVVQIFPPPVTIQQWNNATWTEVSYTFSDYPRGVRYILFQHGGRDTQYWAGWYGPRVTNSSIVVSPKMTRNQASSEAQPGQKHGQEEAAQSPYRAVVQI : -0.923
GALT1 615 (Arabidopsis thaliana), Q8L7F9 (protein) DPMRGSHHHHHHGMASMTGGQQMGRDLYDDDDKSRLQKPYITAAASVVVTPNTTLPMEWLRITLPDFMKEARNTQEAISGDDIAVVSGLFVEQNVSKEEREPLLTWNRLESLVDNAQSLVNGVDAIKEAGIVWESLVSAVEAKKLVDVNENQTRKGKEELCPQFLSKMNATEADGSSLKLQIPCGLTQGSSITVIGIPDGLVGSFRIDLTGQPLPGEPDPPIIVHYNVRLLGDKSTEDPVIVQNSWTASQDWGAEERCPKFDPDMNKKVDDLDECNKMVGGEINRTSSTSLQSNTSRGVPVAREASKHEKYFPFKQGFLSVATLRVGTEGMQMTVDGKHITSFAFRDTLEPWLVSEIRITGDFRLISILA : -0.386

Proceeding to the next binder to report its glycan array binding signal (z-score).
Retrieve glycan array binding signal (z-score) measured for LCA (Lens culinaris), P02870 (protein) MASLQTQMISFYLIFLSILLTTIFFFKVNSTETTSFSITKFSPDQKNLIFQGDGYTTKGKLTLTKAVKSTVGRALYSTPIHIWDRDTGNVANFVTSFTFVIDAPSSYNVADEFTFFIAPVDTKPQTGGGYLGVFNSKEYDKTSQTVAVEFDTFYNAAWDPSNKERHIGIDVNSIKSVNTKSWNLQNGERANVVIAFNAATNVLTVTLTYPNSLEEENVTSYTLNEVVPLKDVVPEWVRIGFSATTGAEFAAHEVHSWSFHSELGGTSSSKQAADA and print it.
-0.209
